Data provenance: PubChem BioAssay (NCI)

TGI values for the compounds below.
System: HL-60(TB) leukemia
assayText: NCI tumour cell line growth inhibition, 48 h
Give the quantity in µM, number only.

Below are worked cases with known answers.
>  <chemicalStructure>
O=C(NC1=CC(=O)c2ccccc2C1=O)c1ccccc1

>  <TGI (µM)>
2.53

$$$$
>  <chemicalStructure>
COc1ccccc1CNCCCN1C(=O)c2ccc3c4c(ccc(c24)C1=O)C(=O)N(CCCOCCCCOCCCN)C3=O

>  <TGI (µM)>
2.06

$$$$
>  <chemicalStructure>
COC(=O)[C@@H](C)CNS(=O)(=O)N(c1cc(C(F)(F)F)cc(C(F)(F)F)c1)C1CCN(Cc2ccc(F)cc2)CC1

>  <TGI (µM)>
18.2

$$$$

[in] Which TGI value belongs to `COc1cc2nc3cc([N+](=O)[O-])ccc3c(NCCCNCCO)c2cc1OC` ?
[out] 4.32

====

Tested on: HCT-116 colon
assayText: NCI tumour cell line growth inhibition, 48 h
propertyLabel: TGI

Below: 5 compounds and their reported TGI.
>  <compound>
O=C(c1ccc(N=Cc2ccccc2O)cc1)c1ccc(N=Cc2ccccc2O)cc1

>  <endpointValue>
> 100 µM

$$$$
>  <compound>
CN1CCN(CCCOc2ccc3nc(Nc4ccc(Cl)c(C(F)(F)F)c4)ccc3c2)CC1

>  <endpointValue>
21.7 µM

$$$$
>  <compound>
COc1cc(/C=C2/C[C@H]3[C@@H]4CC=C5C[C@@H](O)CC[C@]5(C)[C@H]4CC[C@]3(C)NC2=O)cc(OC)c1OC

>  <endpointValue>
> 66.3 µM

$$$$
>  <compound>
COc1cc2c3c(n(CCCNC(=O)OCC4c5ccccc5-c5ccccc54)c(=O)c2cc1OC)-c1cc2c(cc1/C3=C\CCNC(=O)OCC1c3ccccc3-c3ccccc31)OCO2

>  <endpointValue>
> 12.9 µM

$$$$
>  <compound>
O=C(NNC(=S)Nc1cccc(Cl)c1)c1cc(-c2ccccc2)nc2ccccc12

>  <endpointValue>
30.3 µM

$$$$

[in] # query: TGI of entry `CCOC(=O)c1c(C)n(Cc2ccc(Cl)cc2Cl)c2c1c(CN(C)C)c(O)c1[nH]cnc12`
[out] 33 µM

[in] Would you mind telling me what TGI value was observed for COC[C@@H](C[C@H]1O[C@@](O)([C@H](O)[C@@H]2C[C@H](OC)[C@@H](O)CC/C=C(C)/C=C/[C@@H](O[C@@H]3O[C@@H](C)[C@H](OC)[C@@H](O)[C@@H]3O)[C@H](C)/C=C(C)/C=C(C)/C=C(\C)C(=O)O2)[C@H](C)[C@@H](O)[C@H]1C)O[C@H]1C[C@](C)(O)[C@@H](O[C@H]2C[C@@H](OC)[C@H](O)[C@@H](C)O2)C(C)O1 (stereo partly drawn) ?
[out] > 100 µM

[in] Query (compound): Cc1cccc(NC(=O)/C(=N\NC(C)(C)C)C2NC(=S)NC2=O)c1C (stereo not drawn) ; field requested: TGI
[out] > 100 µM

====

Listing of entries alongside the reported GI50.
Tested on: A549 NSCLC
assayText: NCI tumour cell line growth inhibition, 48 h

See these solved cases before continuing.
>  <compound>
COc1ccccc1CNCCCN1C(=O)c2ccc3c4c(ccc(c24)C1=O)C(=O)N(CCCOCCCCOCCCN)C3=O

>  <GI50>
1.22 µM

$$$$
>  <compound>
COc1ccc(-c2n[nH]nc2-c2cc(OC)c(OC)c(OC)c2)cc1

>  <GI50>
< 0.01 µM

$$$$

[in] For CCCCC(O)(c1ccc(Cl)cc1)C(CN1CCOCC1)c1ccc(Cl)cc1 (centres undefined) , what is its reported GI50?
[out] 12.5 µM

[in] Could you tell me which GI50 is on file for `COc1ccc(Nc2c3ccccc3nc3occc23)cc1` ?
[out] 3.26 µM

[in] Would you kindly share the measured GI50 for `COc1cc(-c2ccc3c(c2)NC(=O)/C3=C\c2ccc[nH]2)ccc1O` ?
[out] 0.0374 µM

[in] Quick check: GI50 of `CN1C/C=C\CCOc2cccc(c2)-c2ccnc(n2)Nc2cccc(c2)C1` ?
[out] 0.0469 µM

[in] Entry CCC[CH2][Sn]1([CH2]CCC)[O]CC(CN2CCCC2)[O]1 (centres undefined) has what GI50?
[out] 47.2 µM

[in] Look up GI50 for this compound: `CC(=O)[O-].CCN(CC)c1ccc(C=NCCN=Cc2ccc(N(CC)CC)cc2[O-])c([O-])c1.[Mn+3]`
[out] 34.5 µM

[in] Dear colleague, I am looking for the recorded GI50 of the following compound: `COC1=CC(=O)c2nc(-c3cccc(C)n3)[nH]c2C1=O`
[out] 19.1 µM

[in] Please report the recorded GI50 for `COc1cc2nc3cc([N+](=O)[O-])ccc3c(NCCCNCCO)c2cc1OC` .
[out] 0.255 µM

[in] Data request, read-out GI50, for `COc1nc2ccccc2cc1-c1nc2c(cnn2-c2ccc(Br)cc2)c(=O)[nH]1`
[out] 0.0837 µM

[in] Name the reported GI50 value associated with the compound `COc1cc2c(c(OC)c1OC)-c1ccc(OC)c(=O)cc1[C@@H](NC(=O)c1ccccc1)CC2`
[out] < 0.003 µM

[in] Returns the measured GI50 for the input compound. Input: `CC(=O)/C(C)=N/NC(=O)c1ccccc1O`
[out] > 100 µM

[in] Request the reported GI50 associated with `C[C@@]12CC=C3c4nc(Nc5cccc(O)c5)sc4CC[C@]3(C)[C@H]1CC[C@]1(C)C(=O)CC[C@@H]21`
[out] 4.6 µM
